Molecular target: Recombinant full length human OGA enzyme (Homo sapiens, UniProt O60502)
Construct: Recombinant full length human OGA enzyme was purchased from Origene
Sequence (O60502 1-916): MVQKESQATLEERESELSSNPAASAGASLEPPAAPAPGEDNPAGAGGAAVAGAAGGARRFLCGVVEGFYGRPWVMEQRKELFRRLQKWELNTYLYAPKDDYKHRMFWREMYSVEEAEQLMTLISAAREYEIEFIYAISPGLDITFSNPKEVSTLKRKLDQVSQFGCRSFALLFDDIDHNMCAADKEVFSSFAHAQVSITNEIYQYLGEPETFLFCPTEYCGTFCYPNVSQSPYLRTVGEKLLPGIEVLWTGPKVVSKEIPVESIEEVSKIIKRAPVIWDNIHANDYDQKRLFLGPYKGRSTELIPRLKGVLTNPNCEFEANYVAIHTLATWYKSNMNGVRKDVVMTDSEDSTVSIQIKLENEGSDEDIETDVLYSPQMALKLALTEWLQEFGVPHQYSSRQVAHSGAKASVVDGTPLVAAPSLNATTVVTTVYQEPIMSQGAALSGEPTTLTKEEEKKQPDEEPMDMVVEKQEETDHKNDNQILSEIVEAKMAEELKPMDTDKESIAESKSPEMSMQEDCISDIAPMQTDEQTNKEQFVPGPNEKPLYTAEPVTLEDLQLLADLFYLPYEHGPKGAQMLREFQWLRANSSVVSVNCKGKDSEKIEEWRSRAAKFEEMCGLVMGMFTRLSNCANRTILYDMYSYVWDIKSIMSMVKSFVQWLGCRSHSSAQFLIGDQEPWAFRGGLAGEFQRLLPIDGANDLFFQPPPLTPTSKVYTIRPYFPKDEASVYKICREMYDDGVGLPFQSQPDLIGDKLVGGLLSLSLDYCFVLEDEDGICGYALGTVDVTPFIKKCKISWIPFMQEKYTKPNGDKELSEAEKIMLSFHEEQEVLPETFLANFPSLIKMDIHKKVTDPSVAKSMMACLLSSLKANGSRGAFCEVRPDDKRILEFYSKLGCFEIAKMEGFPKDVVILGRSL
Experiment: OGA Enzyme Inhibition Biochemical Assay
Settings: 1 nM OGA, 100 μM 4-MUGlcNAc (Km), pH 6.4, 90 minutes at room temperature; 10-point dose-response starting from 20 μM
For each record, write down the corresponding pIC50.
One number for each entry, as −log10 of the molar value.

- molecule: "CC(=O)Nc1ncc(CN2CCNC(Cc3ccnc(C)c3)C2)s1 (single isomer, unassigned) [Example 4-8 Peak 2]"
  observed: 6.31
- molecule: "CC(=O)Nc1ncc(CN2CCO[C@H](Cc3ccnc(C)n3)C2)s1 [Example 1-14]"
  observed: 6.74
- molecule: "COc1cc(CC2COCCN(Cc3cnc(NC(C)=O)s3)C2)ccn1 (single isomer, unassigned) [Example 1-47 Peak 2]"
  observed: 7.77
- molecule: "CC(=O)Nc1ncc(CN2CCOC(C(C)c3ncc(F)cn3)C2)s1 (single isomer, unassigned) [Example 1-25 Peak 3]"
  observed: 6.80

Look at each molecule and report its pIC50.
1. COc1nccc(C[C@@H]2CN(Cc3cnc(NC(C)=O)s3)CCO2)n1 [Example 1-7]
2. CC(=O)Nc1ncc(CN2CCCNC(Cc3ncc(F)cn3)C2)s1 (stereo not shown) [Example 2-23]
3. CC(=O)Nc1ncc(CN2CCOCC(Cc3ncc(F)cn3)C2)s1 (single isomer, unassigned) [Example 1-45 Peak 2]
4. CC(=O)Nc1ncc(CN2CCCOC(Cc3ncc(F)cn3)C2)s1 (single isomer, unassigned) [Example 1-39 Peak 1]
5. COc1cc(C[C@@H]2CN(Cc3cnc(NC(C)=O)s3)[C@@H](C)CO2)ccn1 [Example 1-30]
6. CC(=O)Nc1ncc(CN2CCCOC(Cc3cc(C)nc(C)c3)C2)s1 (single isomer, unassigned) [Example 1-37 Peak 2]
7. COc1cc(CC2CN(Cc3cnc(NC(C)=O)s3)CCCO2)ccn1 (racemic) [Example 1-40]

[6.96, 5.25, 7.85, 7.70, 4.77, 6.96, 7.00]
